biological target: Transient receptor potential cation channel subfamily V member 1 (Homo sapiens, UniProt Q8NER1); assay: Antagonist activity against human TRPV1 expressed in HEK293 cells assessed as capsaicin-induced calcium flux by FLIPR assay
Sequence (Q8NER1 whole entry): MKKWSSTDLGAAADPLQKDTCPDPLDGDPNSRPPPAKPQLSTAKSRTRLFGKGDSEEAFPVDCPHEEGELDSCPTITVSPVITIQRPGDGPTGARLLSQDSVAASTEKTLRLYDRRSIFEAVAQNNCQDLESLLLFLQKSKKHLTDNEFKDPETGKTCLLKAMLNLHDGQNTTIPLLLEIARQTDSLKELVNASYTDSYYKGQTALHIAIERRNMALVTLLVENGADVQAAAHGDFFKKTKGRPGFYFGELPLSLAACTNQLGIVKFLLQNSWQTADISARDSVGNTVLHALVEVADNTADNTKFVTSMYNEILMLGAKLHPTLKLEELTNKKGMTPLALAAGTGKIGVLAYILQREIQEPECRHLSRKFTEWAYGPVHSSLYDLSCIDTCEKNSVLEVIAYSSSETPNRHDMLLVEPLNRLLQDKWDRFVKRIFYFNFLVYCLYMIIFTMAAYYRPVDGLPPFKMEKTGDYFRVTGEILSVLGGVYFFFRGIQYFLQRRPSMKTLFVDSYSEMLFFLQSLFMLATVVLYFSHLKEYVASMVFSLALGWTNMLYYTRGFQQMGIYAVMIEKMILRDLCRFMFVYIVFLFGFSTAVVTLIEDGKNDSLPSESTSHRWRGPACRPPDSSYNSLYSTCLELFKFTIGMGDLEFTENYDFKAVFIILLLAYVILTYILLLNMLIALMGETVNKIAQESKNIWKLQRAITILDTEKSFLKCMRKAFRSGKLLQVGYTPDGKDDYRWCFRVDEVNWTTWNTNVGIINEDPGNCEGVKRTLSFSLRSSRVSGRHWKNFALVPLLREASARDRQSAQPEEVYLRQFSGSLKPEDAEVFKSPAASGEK
Measured log10 of IC50 of individual entries
Endpoint: log10 of IC50 (log10 of the value in nM)

INSERT INTO results (molecular_string, val) VALUES
  ('Cc1cc2c(NC(=O)N[C@@H]3CC(CF)(CF)Oc4cc(Cl)ccc43)cccc2cn1', 0.95),
  ('Cc1cc2c(NC(=O)N[C@@H]3CC(CF)(CF)Oc4cc(Cl)ccc43)ccc(C)c2cn1', 1.99),
  ('CCC1(CC)C[C@@H](NC(=O)Nc2cccc3cnccc23)c2cc(F)ccc2O1', 0.78),
  ('CC1(C)C[C@@H](NC(=O)Nc2cccc3cnccc23)c2ccc(F)cc2O1', 0.60),
  ('Cc1cc2c(NC(=O)N[C@@H]3CC(CF)(CF)Oc4cc(Cl)ccc43)c(C)ccc2cn1', 1.87),
  ('CC1(C)C[C@@H](NC(=O)Nc2cccc3cnccc23)c2ccccc2O1', 0.60),
  ('CCC1(CC)C[C@@H](NC(=O)Nc2cccc3cnc(C)cc23)c2cccc(F)c2O1', 1.53),
  ('Cn1ncc2c(NC(=O)N[C@@H]3CC(C)(C)Oc4cc(F)ccc43)cccc21', 0.85),
  ('CCCC1(CCC)C[C@@H](NC(=O)Nc2cccc3cnc(C)cc23)c2cccc(F)c2O1', 2.18),
  ('Cc1cc2c(NC(=O)N[C@@H]3CC(CF)(CF)Oc4cc(Cl)ccc43)c(F)ccc2cn1', 1.34),
  ('Cc1cc2c(NC(=O)N[C@@H]3CC(CF)(CF)Oc4c(F)cccc43)cccc2cn1', 1.34);
